System: c-Abl (mouse);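 also: 11-residue human phosphosite peptides and single-mutation variants displayed on the E. coli surface, counted by deep sequencing, each peptide's frequency after selection divided by its frequency in the unselected input library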;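 also: frequency after pTyr selection over input frequency; kinase dosed for 20-30% of maximal phosphorylation in three min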
TEST SUMMARY: phosphorylation enrichment, bacterial display (enrichment ratio); higher = better substrate or ligand; peptides without Tyr show the background
Collected phosphorylation enrichment values appear next to each entry.
MEASURED ENDPOINT: phosphorylation enrichment

{"ORDERED RESIDUES": "GHGEEYPAAGA [NOTCH3_Y2221]", "TGT": "c-Abl (mouse)", "QUANTITATIVE READOUT": 0.469}
{"ORDERED RESIDUES": "DSSIRYLQEIH [FGG_Y135_Y140H]", "TGT": "c-Abl (mouse)", "QUANTITATIVE READOUT": 0.524}
{"ORDERED RESIDUES": "QTLTDYDTRFF [CSNK2A3_Y131_I133T_YF]", "TGT": "c-Abl (mouse)", "QUANTITATIVE READOUT": 0.725}
{"ORDERED RESIDUES": "RLRKFYLGKFL [KLB_Y906_YF]", "TGT": "c-Abl (mouse)", "QUANTITATIVE READOUT": 0.719}
{"ORDERED RESIDUES": "DRLASSLDKVR [KRT10_Y160_Y160S]", "TGT": "c-Abl (mouse)", "QUANTITATIVE READOUT": 0.468}
{"ORDERED RESIDUES": "EHVMPYAANKN [GRIN2A_Y1431]", "TGT": "c-Abl (mouse)", "QUANTITATIVE READOUT": 0.374}
{"ORDERED RESIDUES": "ANNEFYFQVCA", "TGT": "c-Abl (mouse)", "QUANTITATIVE READOUT": 0.818}
{"ORDERED RESIDUES": "RIILLYIFLKN [STXBP1_Y411]", "TGT": "c-Abl (mouse)", "QUANTITATIVE READOUT": 0.827}
{"ORDERED RESIDUES": "TGFRPYVCPFD [YY1_Y383_D380Y_YF]", "TGT": "c-Abl (mouse)", "QUANTITATIVE READOUT": 1.29}
{"ORDERED RESIDUES": "SEQNNYSRVAN [CWC22_Y797_R794Q]", "TGT": "c-Abl (mouse)", "QUANTITATIVE READOUT": 0.447}
{"ORDERED RESIDUES": "AAVPAYDKIRV [STXBP2_Y401]", "TGT": "c-Abl (mouse)", "QUANTITATIVE READOUT": 0.569}
{"ORDERED RESIDUES": "FISVGYVDDTQ [HLA-B_Y51]", "TGT": "c-Abl (mouse)", "QUANTITATIVE READOUT": 0.752}
{"ORDERED RESIDUES": "RGFRVCFTPDS [PTPRF_Y450_Y450C_YF]", "TGT": "c-Abl (mouse)", "QUANTITATIVE READOUT": 1.32}
{"ORDERED RESIDUES": "LERDIYNREEF [HLA-DPB1_Y59_Y57D]", "TGT": "c-Abl (mouse)", "QUANTITATIVE READOUT": 1.39}
{"ORDERED RESIDUES": "SSSPTYLDLPF [GLI3_Y168_P169L]", "TGT": "c-Abl (mouse)", "QUANTITATIVE READOUT": 0.681}
{"ORDERED RESIDUES": "INITIYGKTFR [EFHC1_Y177]", "TGT": "c-Abl (mouse)", "QUANTITATIVE READOUT": 1.05}
{"ORDERED RESIDUES": "VLALWYFFLTN [ZDHHC23_Y127_H132N_YF]", "TGT": "c-Abl (mouse)", "QUANTITATIVE READOUT": 0.904}
{"ORDERED RESIDUES": "GYRPVYSEDEQ [CHST6_Y362]", "TGT": "c-Abl (mouse)", "QUANTITATIVE READOUT": 0.774}
{"ORDERED RESIDUES": "EAGKVYLKAPM [CBFB_Y96]", "TGT": "c-Abl (mouse)", "QUANTITATIVE READOUT": 0.504}
{"ORDERED RESIDUES": "NPQKSYFIRLF [WAS_Y83_YF]", "TGT": "c-Abl (mouse)", "QUANTITATIVE READOUT": 0.692}
{"ORDERED RESIDUES": "PFTRNYYVQAV [CYBA_Y87_R90Q]", "TGT": "c-Abl (mouse)", "QUANTITATIVE READOUT": 1.12}
{"ORDERED RESIDUES": "SIKHKYVTALY [KCNH2_Y611_D609H]", "TGT": "c-Abl (mouse)", "QUANTITATIVE READOUT": 0.444}
{"ORDERED RESIDUES": "DVLPEYKLQAP [KCNH2_Y388]", "TGT": "c-Abl (mouse)", "QUANTITATIVE READOUT": 0.693}
{"ORDERED RESIDUES": "EKHGQYLIGHG [EPHB4_Y581_D576E]", "TGT": "c-Abl (mouse)", "QUANTITATIVE READOUT": 0.543}
{"ORDERED RESIDUES": "GKTFTYRSVFF [ZNF80_Y200]", "TGT": "c-Abl (mouse)", "QUANTITATIVE READOUT": 0.693}
{"ORDERED RESIDUES": "RASSVFTRSTG [CCR5_Y339_Y339F]", "TGT": "c-Abl (mouse)", "QUANTITATIVE READOUT": 0.861}
{"ORDERED RESIDUES": "VVAHHYSFAPD [TNS3_Y601_Q600H]", "TGT": "c-Abl (mouse)", "QUANTITATIVE READOUT": 0.583}
{"ORDERED RESIDUES": "ETDSEYVKLAK [C7orf57_Y70]", "TGT": "c-Abl (mouse)", "QUANTITATIVE READOUT": 0.588}
{"ORDERED RESIDUES": "MEYAKYGSLRG [RET_Y809_V804M]", "TGT": "c-Abl (mouse)", "QUANTITATIVE READOUT": 0.474}
